Taken from patent US20210079074A1.

Listing of recorded ELISA OD by entry.
biological target: T1, recombinant MS4A4A soluble polypeptide JS5; assay: ELISA, 1 ug/ml antibody
T1 construct: also called JS5.His
API doc: respond with a numeric literal and nothing else, no unit.

# BINDER, MEASURE, VALUE REPORTED
data = [
    ("anti-MS4A4A antibody 4A-377 (antibody, V domains shown, full human IgG) VH: QVQLVQSGSELKKPGASVKVSCKASGYIFTSYGLSWVRQAPGQGLEWMGWINTYSGVPTYAQGFTGRFVFSLDTSVSTAYLQISSLKAEDTAVYYCARSMADYWGQGTLVTVSS VL: DVVMTQSPLSLPVTLGQPASISCKSSRSLLYSGGKTYLSWFQQRPGQSPRRLIYLVSKLDSGVPDRFSGSGSGTDFTLKISRVEAEDVGVYYCWQGIDFHQTFGGGTKVEIK", "ELISA OD", 0.928),
    ("anti-MS4A4A antibody 4A-380 (antibody, V domains shown) VH: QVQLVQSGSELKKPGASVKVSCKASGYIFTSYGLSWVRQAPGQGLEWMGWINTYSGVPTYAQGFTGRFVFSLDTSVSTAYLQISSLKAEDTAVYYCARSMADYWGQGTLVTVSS VL: DVVMTQSPLSLPVTLGQPASISCKSSRSLLYSSGKTYLSWFQQRPGQSPRRLIYLVSKLDSGVPDRFSGSGSGTDFTLKISRVEAEDVGVYYCWQGIDFHQTFGGGTKVEIK", "ELISA OD", 0.981),
]

Now take the following binder into account.
Which ELISA OD value is on record for anti-MS4A4A antibody 4A-356 (antibody, V domains shown, full human IgG) VH: QVQLVQSGSELKKPGASVKVSCKASGYIFTSYGLSWVRQAPGQGLEWMGWINTYSGVPTYAQGFTGRFVFSLDTSVSTAYLQISSLKAEDTAVYYCARTLADYWGQGTLVTVSS VL: DVVMTQSPLSLPVTLGQPASISCKSSRSLLYSQGKTYLSWFQQRPGQSPRRLIYLVSKLDSGVPDRFSGSGSGTDFTLKISRVEAEDVGVYYCWQGIDFHQTFGGGTKVEIK ?
0.927
